TESTED_SYSTEM: Progesterone Receptor (Homo sapiens, UniProt P06401)
Construct: T47D cells were seeded into 96 well plates; endogenous in cells
ASSAY_EXPLANATION: Assay for progesterone receptor activity (alkaline phosphatase in T47D cells)
CONDITIONS: T47D human breast cancer cells, 24 hours at 37° C.; read-out: EC50 (alkaline phosphatase upregulation)
OUTCOME_MEASURE: EC50

C[C@@H]1C[C@H]2[C@@H]3C[C@H](F)C4=CC(=O)C=C[C@]4(C)[C@@]3(F)[C@@H](O)C[C@]2(C)[C@@]1(OC(=O)C1C(C)(C)C1(C)C)C(=O)OCC#N = > 100 nM
